- Tested on: A549
- assay.explanation: Inhibition of TNF-alpha-induced NF-kappaB transcriptional activation in human A549 cells by SEAP reporter gene assay
- Type: functional, cell-based
pEC50: −log10 of the molar value.
reported.property: pEC50

Worked examples follow.
O=C1CN(/N=C/[C@H](Cc2c[nH]c3ccccc23)NC(=O)[C@H](Cc2c[nH]c3ccccc23)NC(=O)[C@H](Cc2c[nH]c3ccccc23)NC(=O)OCc2ccccc2)C(=O)N1; 5.52
NC(=O)N/N=C/[C@H](Cc1ccccc1)NC(=O)[C@H](Cc1c[nH]c2ccccc12)NC(=O)[C@H](Cc1c[nH]c2ccccc12)NC(=O)OCc1ccccc1; 5.24
O=C1CN(/N=C/[C@H](Cc2ccccc2)NC(=O)[C@H](Cc2c[nH]c3ccccc23)NC(=O)[C@H](Cc2c[nH]c3ccccc23)NC(=O)OCc2ccncc2)C(=O)N1; 5.31
NC(=O)N/N=C/[C@H](Cc1c[nH]c2ccccc12)NC(=O)[C@H](Cc1c[nH]c2ccccc12)NC(=O)[C@H](Cc1c[nH]c2ccccc12)NC(=O)OCc1ccccc1; 5.74

[P] O=C1CN(/N=C/[C@H](Cc2ccccc2)NC(=O)[C@H](Cc2c[nH]c3ccccc23)NC(=O)[C@H](Cc2c[nH]c3ccccc23)NC(=O)CCc2ccc(O)cc2)C(=O)N1
[Q] O=C1CN(/N=C/[C@@H](Cc2ccccc2)NC(=O)[C@H](Cc2c[nH]c3ccccc23)NC(=O)[C@H](Cc2c[nH]c3ccccc23)NC(=O)OCc2ccccc2)C(=O)N1
[R] O=C1CN(/N=C/[C@H](Cc2ccccc2)NC(=O)[C@H](Cc2c[nH]c3ccccc23)NC(=O)[C@H](Cc2c[nH]c3ccccc23)NC(=O)OCc2ccccc2)C(=O)N1
Rank ascending by pEC50. The labels, placed in the requested order, form the answer.
P, Q, R
(P: 5.06, Q: 6.10, R: 6.40)
